Below: a set of entries, each annotated with reported pKd.
TESTED SYSTEM: T1, human OX40 extracellular domain (ECD) protein (human, UniProt P43489 29-214)
T1 construct: extracellular domain; also called human OX40 ECD; human OX40 protein; not shown: human Fc or His tag
T1 sequence (looked up): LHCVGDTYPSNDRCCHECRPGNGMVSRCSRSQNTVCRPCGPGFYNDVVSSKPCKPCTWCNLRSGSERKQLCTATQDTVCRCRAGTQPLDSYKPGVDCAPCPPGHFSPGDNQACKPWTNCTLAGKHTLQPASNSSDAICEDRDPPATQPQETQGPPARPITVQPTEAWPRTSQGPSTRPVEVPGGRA
EXPERIMENTAL DETAILS: SPR, Biacore T200, antibody captured, OX40 as analyte
# pKd is unitless: minus log10 of the molar concentration; print number only

Worked examples follow.
1.7.10-u1-IgG1K (antibody, V domains shown, fully human IgG1, kappa) VH: QVHLVESGGGLVKPGGSLRLSCAASGFTFSDYYMSWIRQAPGKGLEWVSYISGSGNTIYYADSVKGRFTISRDNAKNSLYLQMNSLRADDTAVYFCARERGAAGTGWFDPWGQGTLVTVSS VL: DIQMTQSPSSVSASVGDRVTITCRASQGISSWLAWYQQKPGKAPKLLIYAASSLQGGVPSRFSGSGSGTDFTLTISSLQPEDFATYYCQQVNSFPWTFGQGTKVEIK: 8.83
1.134.9-u1-IgG1L (antibody, V domains shown, fully human IgG1, lambda) VH: QVQLQESGPGLVKPSGTLSLTCAVSGGSISSYNWWSWVRQPPGKGLEWIGEIYHGGNTNYNPSLKSRVTMSVDNSKNQFSLKLSSVTAADTAVYYCARAPGDWGGSPYFDFWGQGTLVTVSS VL: SSELTQDPAVSVALGQTVRITCQGDNLRTYYASWYQQKPGQAPILLIYGRNKRPSGIPDRFSGSSSGNTASLTITGAQAEDEAAYYCNSRDSSGNPVVFGGGTKLTVL: 9.75
1.214.23-u1-IgG1K (antibody, V domains shown, fully human IgG1, kappa) VH: QVQLQESGPGLVKPSGTLSLTCVVSGGSISNRNWWSWVRQPPGKGLEWIGEIFHSGNTNYNPSLKSRVTISVDKSKNQFSLKVNSVTAADTAVYYCAKSFAVALDSWGQGTLVTVSS VL: DIQLTQSPSFLSASVGDRVTITCRASQDINSYLAWCQQKPGKAPKLLIYAASSLQSGVPSRFSGTGSGTEFTLTISSLQPEDFATYYCQQLFSYPITFGQGTRLEIK: 9.30

Recorded result, 1.186.19-u1-IgG1K (antibody, V domains shown, fully human IgG1, kappa) VH: QVHLVESGGGLVKPGGSLRLSCAASGFTFSDYYMGWIRQAPGQGLEWVSYISGSGNTIYYADSVKGRFTISRDNAKNSLYLQMNSLRADDTAVYFCAKERGAAGAGWFDPWGQGTLVTVSS VL: DIQMTQSPSSVSASVGDRVTITCRASQGISSWLAWYQQKPGKAPKLLIYAASSLQGGVPSRFSGSGSGTDFTLTISSLQPEDFATYHCQQVNSFPWTFGQGTKVEIK , pKd: 8.94
